UniProt P18901 data, read-out pKi
Sequence (P18901 whole entry): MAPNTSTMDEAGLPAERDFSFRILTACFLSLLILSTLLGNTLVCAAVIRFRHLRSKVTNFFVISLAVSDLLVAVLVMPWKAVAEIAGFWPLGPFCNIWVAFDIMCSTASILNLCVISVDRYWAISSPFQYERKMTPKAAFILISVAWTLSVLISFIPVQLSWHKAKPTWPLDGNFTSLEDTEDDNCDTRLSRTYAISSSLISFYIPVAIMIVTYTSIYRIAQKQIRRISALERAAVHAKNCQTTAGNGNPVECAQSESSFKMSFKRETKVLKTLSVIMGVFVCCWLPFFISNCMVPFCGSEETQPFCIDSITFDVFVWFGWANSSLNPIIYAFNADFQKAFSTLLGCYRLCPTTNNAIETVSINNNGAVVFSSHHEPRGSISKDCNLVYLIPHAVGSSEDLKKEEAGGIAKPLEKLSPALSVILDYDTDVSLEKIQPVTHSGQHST
Here pKi is given on a logarithmic scale as minus log10 of the concentration in mol/L.

Lookup result for CN1CCN(C2=Nc3ccccc3Oc3ncccc32)CC1 ; measured pKi: 5.62

Lookup result for CN1CCN(C2=Nc3cccnc3Oc3ccc(Cl)cc32)CC1 ; measured pKi: 5.97

Lookup result for CN1CCN(C2=Nc3ccccc3Sc3ncccc32)CC1 ; measured pKi: 5.79

Lookup result for CN1CCN(C2=Nc3cccnc3Sc3ccc(Cl)cc32)CC1 ; measured pKi: 6.17

###

Assign -Log Ki to each entry below.
// response body must contain only the number

Item: CN1CCN(C2=Nc3cccnc3Oc3ccccc32)CC1 | System: Muscarinic acetylcholine receptor | -Log Ki: 6.07

Item: CN1CCN(C2=Nc3cccnc3Sc3ccccc32)CC1 | System: Muscarinic acetylcholine receptor | -Log Ki: 6.13

Item: CN1CCN(C2=Nc3cccnc3Sc3ccc(Cl)cc32)CC1 | System: Muscarinic acetylcholine receptor | -Log Ki: 5.75

Item: CN1CCN(C2=Nc3cc(Cl)ccc3Oc3ncccc32)CC1 | System: Muscarinic acetylcholine receptor | -Log Ki: 5.65

Item: Cc1ccc2c(c1)N=C(N1CCN(C)CC1)c1cccnc1O2 | System: Muscarinic acetylcholine receptor | -Log Ki: 5.42

Item: CN1CCN(C2=Nc3ccccc3Sc3ncccc32)CC1 | System: Muscarinic acetylcholine receptor | -Log Ki: 5.61

Item: CN1CCN(C2=Nc3ccccc3Oc3ncccc32)CC1 | System: Muscarinic acetylcholine receptor | -Log Ki: 5.47

Item: CN1CCN(C2=Nc3cccnc3Oc3ccc(Cl)cc32)CC1 | System: Muscarinic acetylcholine receptor | -Log Ki: 5.86

Item: CN1CCN(C2=Nc3cnccc3Sc3ccccc32)CC1 | System: Muscarinic acetylcholine receptor | -Log Ki: 6.68
